Test system: rat erythrocytes
testDescription: Hemolysis assay
Type: cell-based
experimentalContext: pH 7.4
Square brackets hold non-standard residues; d marks the D form. Peptide text beside a SMILES is read from it. Nspe = C[C@H](NCC(=O)O)c1ccccc1; Nphe = O=C(O)CNCc1ccccc1; Nlys = NCCCCNCC(=O)O
# key: entry, value: HC10
Just the number in µM, nothing appended.

C[C@@H](c1ccccc1)N(CC(N)=O)C(=O)CN(C(=O)CN(CCCCN)C(=O)CN(C(=O)CN(C(=O)CN(CCCCN)C(=O)CN(C(=O)CN(C(=O)CN(CCCCN)C(=O)CN(CCc1c[nH]c2ccccc12)C(=O)CN(C(=O)CNCCCCN)[C@@H](C)c1ccccc1)[C@@H](C)c1ccccc1)[C@@H](C)c1ccccc1)[C@@H](C)c1ccccc1)[C@@H](C)c1ccccc1)[C@@H](C)c1ccccc1 [peptoid 10] ... 6.6
C[C@@H](c1ccccc1)N(CC(N)=O)C(=O)CN(C(=O)CN(CCCCN)C(=O)CN(C(=O)CN(CCCCN)C(=O)CN(CCCCN)C(=O)CN(C(=O)CN(C(=O)CN(CCCCN)C(=O)CN(C(=O)CN(C(=O)CN(CCCCN)C(=O)CN(CCc1c[nH]c2ccccc12)C(=O)CNCCc1c[nH]c2ccccc12)[C@@H](C)c1ccccc1)[C@@H](C)c1ccccc1)[C@@H](C)c1ccccc1)[C@@H](C)c1ccccc1)[C@@H](C)c1ccccc1)[C@@H](C)c1ccccc1 [peptoid 35] ... 20.4
C[C@@H](c1ccccc1)N(CC(N)=O)C(=O)CN(C(=O)CN(CCCCN)C(=O)CN(C(=O)CN(C(=O)CN(CCCCN)C(=O)CN(C(=O)CN(C(=O)CN(CCCCN)C(=O)CN(C(=O)CN(C(=O)CN(CCCCN)C(=O)CN(CCc1c[nH]c2ccccc12)C(=O)CNCCc1c[nH]c2ccccc12)[C@@H](C)c1ccccc1)[C@@H](C)c1ccccc1)[C@@H](C)c1ccccc1)[C@@H](C)c1ccccc1)[C@@H](C)c1ccccc1)[C@@H](C)c1ccccc1)[C@@H](C)c1ccccc1 [peptoid 6] ... 9.6

// below: HC10 requested for another molecule
Problem: Entry C[C@@H](c1ccccc1)N(CC(=O)N(CCCCN)CC(=O)N(CC(=O)N(CC(=O)N(CCCCN)CC(=O)N(CC(=O)N(CC(=O)N(CCCCN)CC(=O)N(CC(=O)N(CC(N)=O)Cc1ccccc1)Cc1ccccc1)[C@@H](C)c1ccccc1)[C@@H](C)c1ccccc1)[C@@H](C)c1ccccc1)[C@@H](C)c1ccccc1)C(=O)CN(C(=O)CNCCCCN)[C@@H](C)c1ccccc1 [peptoid 44] (H-[Nlys][Nspe][Nspe][Nlys][Nspe][Nspe][Nlys][Nspe][Nspe][Nlys][Nphe][Nphe]-NH2) , system rat erythrocytes: what HC10 was measured?
Result: 6.3

---

System: rat erythrocytes
testDescription: Hemolysis assay
Type: cell-based
experimentalContext: pH 7.4
Square brackets hold non-standard residues; d marks the D form. Peptide text beside a SMILES is read from it. Gly(N(CH2)2(3-indolyl)) = O=C(O)CNCCc1c[nH]c2ccccc12; Nspe = C[C@H](NCC(=O)O)c1ccccc1; Nlys = NCCCCNCC(=O)O
recordedEndpoint: HC10

Problem: Param item = C[C@@H](c1ccccc1)N(CC(=O)N(CCCCN)CC(=O)N(CCc1c[nH]c2ccccc12)CC(=O)N(CCc1c[nH]c2ccccc12)CC(N)=O)C(=O)CN(CCCCN)C(=O)CN(CCCCN)C(=O)CN(C(=O)CN(C(=O)CN(CCCCN)C(=O)CN(C(=O)CN(C(=O)CNCCCCN)[C@@H](C)c1ccccc1)[C@@H](C)c1ccccc1)[C@@H](C)c1ccccc1)[C@@H](C)c1ccccc1 [peptoid 29] (H-[Nlys][Nspe][Nspe][Nlys][Nspe][Nspe][Nlys][Nlys][Nspe][Nlys][Gly(N(CH2)2(3-indolyl))][Gly(N(CH2)2(3-indolyl))]-NH2) ; retrieve measured HC10.
Result: > 100 µM

---

Test system: rat erythrocytes
testDescription: Hemolysis assay
Type: cell-based
Experimental: The hemolysis assay was performed using rat erythrocytes in phosphate‐buffered saline (PBS), as reported by Mendes et al.^[ [45] ^] Animal studies were approved by the Laboratory Animal Resource Center of Gwangju Institute of Science and Technology. […] Aliquots (150 µL) of the supernatant were transferred to fresh 96‐well plates, and the absorbance of each well was measured at 540 nm using a microplate reader. […]
# key: entry, value: Hmax (100 µM)
Just the number in %, nothing appended.

C[C@@H](c1ccccc1)N(CC(N)=O)C(=O)CN(C(=O)CN(CCCCN)C(=O)CN(C(=O)CN(C(=O)CN(CCCCN)C(=O)CN(C(=O)CN(C(=O)CN(CCCCN)C(=O)CN(CCc1c[nH]c2ccccc12)C(=O)CN(C(=O)CNCCCCN)[C@@H](C)c1ccccc1)[C@@H](C)c1ccccc1)[C@@H](C)c1ccccc1)[C@@H](C)c1ccccc1)[C@@H](C)c1ccccc1)[C@@H](C)c1ccccc1 [10-AcOH] ... 102.3

Problem: Param item = C[C@@H](c1ccccc1)N(CC(N)=O)C(=O)CN(C(=O)CN(CCCCN)C(=O)CN(C(=O)CN(C(=O)CN(CCCCN)C(=O)CN(C(=O)CN(C(=O)CN(CCCCN)C(=O)CN(C(=O)CN(C(=O)CN(CCCCN)C(=O)CNCCc1c[nH]c2ccccc12)[C@@H](C)c1ccccc1)[C@@H](C)c1ccccc1)[C@@H](C)c1ccccc1)[C@@H](C)c1ccccc1)[C@@H](C)c1ccccc1)[C@@H](C)c1ccccc1)[C@@H](C)c1ccccc1 [peptoid 3] ; retrieve measured Hmax (100 µM).
Result: 100.5

---

Tested on: rat erythrocytes
testDescription: Hemolysis assay
Assay type: cell-based
Square brackets hold non-standard residues; d marks the D form. Peptide text beside a SMILES is read from it. Gly(N(CH2)2(3-indolyl)) = O=C(O)CNCCc1c[nH]c2ccccc12; Nspe = C[C@H](NCC(=O)O)c1ccccc1; Nlys = NCCCCNCC(=O)O
# key: entry, value: H max (100 µM)
Just the number in %, nothing appended.

Field: example entries. Status: answers known.
C[C@@H](c1ccccc1)N(CC(N)=O)C(=O)CN(C(=O)CN(CCCCN)C(=O)CN(C(=O)CN(C(=O)CN(CCCCN)C(=O)CN(C(=O)CN(C(=O)CN(CCCCN)C(=O)CN(CCc1c[nH]c2ccccc12)C(=O)CN(CCc1c[nH]c2ccccc12)C(=O)CNCCCCN)[C@@H](C)c1ccccc1)[C@@H](C)c1ccccc1)[C@@H](C)c1ccccc1)[C@@H](C)c1ccccc1)[C@@H](C)c1ccccc1 ... 90.0
C[C@@H](c1ccccc1)N(CC(=O)N(CCCCN)CC(=O)N(CC(=O)N(CC(=O)N(CCCCN)CC(=O)N(CC(=O)N(CC(=O)N(CCCCN)CC(=O)N(CCc1c[nH]c2ccccc12)CC(=O)N(CCc1c[nH]c2ccccc12)CC(N)=O)[C@@H](C)c1ccccc1)[C@@H](C)c1ccccc1)[C@@H](C)c1ccccc1)[C@@H](C)c1ccccc1)C(=O)CN(C(=O)CNCCCCN)[C@@H](C)c1ccccc1 [peptoid 11] (H-[Nlys][Nspe][Nspe][Nlys][Nspe][Nspe][Nlys][Nspe][Nspe][Nlys][Gly(N(CH2)2(3-indolyl))][Gly(N(CH2)2(3-indolyl))]-NH2) ... 103.4

Problem: Param item = `C[C@@H](c1ccccc1)N(CC(N)=O)C(=O)CN(C(=O)CN(CCCCN)C(=O)CN(C(=O)CN(C(=O)CN(CCCCN)C(=O)CN(C(=O)CN(C(=O)CN(CCCCN)C(=O)CN(CCc1c[nH]c2ccccc12)C(=O)CN(C(=O)CNCCCCN)[C@@H](C)c1ccccc1)[C@@H](C)c1ccccc1)[C@@H](C)c1ccccc1)[C@@H](C)c1ccccc1)[C@@H](C)c1ccccc1)[C@@H](C)c1ccccc1` ; retrieve measured H max (100 µM).
Result: 108.1

---

# key: entry, value: Hmax (100 µM)
System: rat erythrocytes
testDescription: Hemolysis assay
Assay type: cell-based
Square brackets hold non-standard residues; d marks the D form. Peptide text beside a SMILES is read from it. Gly(N(CH2)2(3-indolyl)) = O=C(O)CNCCc1c[nH]c2ccccc12; Nspe = C[C@H](NCC(=O)O)c1ccccc1; Nlys = NCCCCNCC(=O)O

Field: example entries. Status: answers known.
C[C@@H](c1ccccc1)N(CC(N)=O)C(=O)CN(C(=O)CN(CCCCN)C(=O)CN(C(=O)CN(CCCCN)C(=O)CN(CCCCN)C(=O)CN(C(=O)CN(C(=O)CN(CCCCN)C(=O)CN(CCc1c[nH]c2ccccc12)C(=O)CN(CCc1c[nH]c2ccccc12)C(=O)CNCCCCN)[C@@H](C)c1ccccc1)[C@@H](C)c1ccccc1)[C@@H](C)c1ccccc1)[C@@H](C)c1ccccc1 [peptoid 33] ... 5.0±0.2%
C[C@@H](c1ccccc1)N(CC(=O)N(CCCCN)CC(=O)N(CC(=O)N(CC(=O)N(CCCCN)CC(=O)N(CC(=O)N(CC(=O)N(CCCCN)CC(=O)N(CCc1c[nH]c2ccccc12)CC(=O)N(CCc1c[nH]c2ccccc12)CC(N)=O)[C@@H](C)c1ccccc1)[C@@H](C)c1ccccc1)[C@@H](C)c1ccccc1)[C@@H](C)c1ccccc1)C(=O)CN(C(=O)CNCCCCN)[C@@H](C)c1ccccc1 [11-AcOH] (H-[Nlys][Nspe][Nspe][Nlys][Nspe][Nspe][Nlys][Nspe][Nspe][Nlys][Gly(N(CH2)2(3-indolyl))][Gly(N(CH2)2(3-indolyl))]-NH2) ... 110.4±0.2%
C[C@@H](c1ccccc1)N(CC(N)=O)C(=O)CN(C(=O)CN(CCCCN)C(=O)CN(C(=O)CN(C(=O)CN(CCCCN)C(=O)CN(CCc1c[nH]c2ccccc12)C(=O)CN(C(=O)CN(CCCCN)C(=O)CN(C(=O)CN(C(=O)CNCCCCN)[C@@H](C)c1ccccc1)[C@@H](C)c1ccccc1)[C@@H](C)c1ccccc1)[C@@H](C)c1ccccc1)[C@@H](C)c1ccccc1)[C@@H](C)c1ccccc1 [peptoid 9] ... 106.4±0.6%
C[C@@H](c1ccccc1)N(CC(N)=O)C(=O)CN(C(=O)CN(CCCCN)C(=O)CN(C(=O)CN(C(=O)CN(CCCCN)C(=O)CN(C(=O)CN(C(=O)CN(CCCCN)C(=O)CN(Cc1ccccc1)C(=O)CN(Cc1ccccc1)C(=O)CNCCCCN)[C@@H](C)c1ccccc1)[C@@H](C)c1ccccc1)[C@@H](C)c1ccccc1)[C@@H](C)c1ccccc1)[C@@H](C)c1ccccc1 [peptoid 46] ... 90.8±2.7%

// below: Hmax (100 µM) requested for another compound
Problem: Entry C[C@@H](c1ccccc1)N(CC(N)=O)C(=O)CN(C(=O)CN(CCCCN)C(=O)CN(C(=O)CN(C(=O)CN(CCCCN)C(=O)CN(CCc1c[nH]c2ccccc12)C(=O)CN(CCc1c[nH]c2ccccc12)C(=O)CN(CCCCN)C(=O)CN(C(=O)CN(C(=O)CNCCCCN)[C@@H](C)c1ccccc1)[C@@H](C)c1ccccc1)[C@@H](C)c1ccccc1)[C@@H](C)c1ccccc1)[C@@H](C)c1ccccc1 [peptoid 13] , system rat erythrocytes: what Hmax (100 µM) was measured?
Result: 96.8±1.6%

Every entry's value here was drawn from paper PMC10460844.
